The reported numbers originate from ChEMBL document CHEMBL2434903.

method.description: Cytotoxicity against human MRC5 cells assessed as change in cell morphology after 24 to 96 hrs by light microscopic analysis
Assay type: cell-based
reported.metric: MCC (µM)

compound: CN1OC(n2cc3ccoc3nc2=O)CC1CO (racemic)
reported.metric: MCC
inequality.symbol: >
assay.result: 250

compound: CCCCCc1ccc(-c2cc3cn(C4CC(CO)N(C)O4)c(=O)nc3o2)cc1 (racemic)
reported.metric: MCC
inequality.symbol: =
assay.result: 6

compound: CCCc1cc2cn(C3CC(CO)N(C)O3)c(=O)nc2o1 (stereo not given)
reported.metric: MCC
inequality.symbol: >
assay.result: 250

compound: CN1OC(n2cc3cc(-c4ccccc4)oc3nc2=O)CC1CO (racemic)
reported.metric: MCC
inequality.symbol: >
assay.result: 250

compound: COc1ccc(-c2cc3cn(C4CC(CO)N(C)O4)c(=O)nc3o2)cc1 (racemic)
reported.metric: MCC
inequality.symbol: =
assay.result: 62
